Assay: inhibitors of the yeast RAM network, primary screen, dse1pr::URA3 reporter, 5-FOA selection (AID 868);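 also: 0% = DMSO-only wells with no growth and 100% = 10 µM 1-NA-PP1 full growth; inhibition rescues growth on 5-FOA so higher OD means more RAM inhibition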
Settings: S. cerevisiae dse1pr::URA3 reporter, 5-FOA growth OD615, 2 d; at 50 µM; analog-sensitive cbk1-as2 kinase mutant strain
In all, about 190,000 compounds went through this assay and about 3,500 (1.8%) were called active.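 The calls were made as follows: active = inhibition above a set limit, 3 SD over mean compound inhibition (cut at about 8.4% in these data); inactive = the rest.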 Shown is part of a subset that was picked to be rich in actives.
Possible outcomes: class 1 for active, class 0 for inactive

[[record]]
compound = "CCCC1NC(=S)NC(C)=C1C(C)=O (centres undefined)"
assigned_category = "class 0"

[[record]]
compound = "COc1ccc(-n2nc3c(c2NC(=O)Cc2cccc(C)c2)CS(=O)C3)cc1 (centres undefined)"
assigned_category = "class 0"

[[record]]
compound = "CC1CCN(C2=NC(=O)/C(=C/c3cn[nH]c3-c3ccccc3)S2)CC1"
assigned_category = "class 1"

[[record]]
compound = "Cc1cccc(CC(=O)Nc2c3c(nn2-c2cccc(Cl)c2)CS(=O)C3)c1 (centres undefined)"
assigned_category = "class 1"


// provenance: PubChem BioAssay AID868
